# Target entity: TRPC5 (Homo sapiens, UniProt Q9UL62)
# Construct: expressed in transfected cells; host or cells: HEK 293
# Sequence (Q9UL62 whole entry): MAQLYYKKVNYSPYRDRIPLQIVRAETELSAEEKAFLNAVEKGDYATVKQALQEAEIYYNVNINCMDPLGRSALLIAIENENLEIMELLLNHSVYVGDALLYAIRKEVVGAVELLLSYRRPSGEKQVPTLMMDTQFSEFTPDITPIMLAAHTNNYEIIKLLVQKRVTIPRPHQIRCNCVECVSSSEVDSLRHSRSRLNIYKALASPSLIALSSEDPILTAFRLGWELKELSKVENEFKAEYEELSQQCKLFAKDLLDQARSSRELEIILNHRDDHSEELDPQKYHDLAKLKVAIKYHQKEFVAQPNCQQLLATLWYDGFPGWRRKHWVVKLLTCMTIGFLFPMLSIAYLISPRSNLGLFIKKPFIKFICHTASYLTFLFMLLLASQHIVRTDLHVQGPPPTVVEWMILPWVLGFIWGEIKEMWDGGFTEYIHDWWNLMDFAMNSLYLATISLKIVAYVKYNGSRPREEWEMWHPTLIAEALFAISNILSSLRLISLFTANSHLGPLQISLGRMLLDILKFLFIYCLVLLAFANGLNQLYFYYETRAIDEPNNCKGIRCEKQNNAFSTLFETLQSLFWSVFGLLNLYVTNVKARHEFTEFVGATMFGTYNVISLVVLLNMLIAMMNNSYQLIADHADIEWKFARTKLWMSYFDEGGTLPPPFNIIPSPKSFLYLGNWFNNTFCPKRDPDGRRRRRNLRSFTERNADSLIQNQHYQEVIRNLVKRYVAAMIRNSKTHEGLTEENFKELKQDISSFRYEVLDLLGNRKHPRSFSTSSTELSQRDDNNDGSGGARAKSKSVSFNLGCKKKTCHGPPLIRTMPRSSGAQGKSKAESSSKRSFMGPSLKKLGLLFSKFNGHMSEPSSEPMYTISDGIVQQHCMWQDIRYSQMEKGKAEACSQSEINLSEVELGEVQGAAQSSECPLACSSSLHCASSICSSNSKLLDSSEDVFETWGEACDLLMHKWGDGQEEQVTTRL
# Experiment description: TRPC5 automated patch clamp assay (Qpatch), current block after rosiglitazone stimulation
# Format: cell-based
# Particulars: Table 3; HEK293 cells overexpressing TRPC5; rosiglitazone stimulation; 80 mV; read-out: TRPC5_QP_ XC50_80
pIC50: −log10 of the molar value.
Each entry below carries its reported pIC50.

Compound	pIC50
Cc1cc(F)ccc1CN1CCN(c2cn[nH]c(=O)c2Br)CC1	5.30 to 6.00
Cn1ccnc1CN1CCN(c2cn[nH]c(=O)c2Br)CC1	3.30 to 5.00
Cc1ccccc1CN1CC2(CCN(c3cn[nH]c(=O)c3Br)C2)C1	3.30 to 5.00
O=c1[nH]ncc(N2CCN(Cc3ccc(F)cc3F)CC2)c1Cl	5.00 to 5.30
Cc1ccccc1CN1CCN(c2cn[nH]c(=O)c2OC2CCCC2)CC1=O	5.00 to 5.30
O=c1[nH]ncc(N2CCN(Cc3ccccc3Cl)CC2)c1Cl [drawing 676]	5.30 to 6.00
CCS(=O)(=O)c1c(N2CCN(Cc3ccccc3C)C(=O)C2)cn[nH]c1=O	3.30 to 5.00
Cc1ccccc1CN1CCN(c2cn[nH]c(=O)c2-c2ccccc2)CC1=O	3.30 to 5.00
O=c1[nH]ncc(N2CCN(Cc3ccccc3C(F)(F)F)CC2)c1Cl [drawing 694]	5.30 to 6.00
Cc1ccccc1CN1CCN(c2cn[nH]c(=O)c2CCC(C)C)CC1=O [drawing 695]	3.30 to 5.00

Return the recorded pIC50 value; entry: `Cc1cc(F)ccc1CN1CCN(c2c(Cl)cn[nH]c2=O)CC1`
5.30 to 6.00

Annotate the compound `O=C1CN(c2cn[nH]c(=O)c2Cl)CCN1Cc1c(F)cccc1F` with its measured pIC50.
5.30 to 6.00

Supply recorded pIC50 for Cc1cc(F)ccc1CN1CCN(c2cn[nH]c(=O)c2Cl)CC1 [drawing 679] here.
5.30 to 6.00

Report pIC50, nothing else, for this compound: `Cc1cc(F)ccc1CN1CCN(c2cn[nH]c(=O)c2Br)CC1=O`
6.00 to 11.00

For the compound CN(C)C(=O)CN1CCN(c2cn[nH]c(=O)c2Cl)CC1 [drawing 673] , give its measured pIC50 value.
3.30 to 5.00

For `Cc1ccccc1CN1CCN(c2cn[nH]c(=O)c2-c2ccccn2)CC1=O` , write its pIC50.
3.30 to 5.00

###

# Target entity: TRPC5 (Homo sapiens, UniProt Q9UL62)
# Construct: expressed in transfected cells; host or cells: HEK 293
# Experiment description: TRPC5 automated patch clamp assay (Qpatch), current block after rosiglitazone stimulation
# Format: cell-based
# Particulars: Table 4; HEK293 cells overexpressing TRPC5; rosiglitazone stimulation; 100 mV; read-out: TRPC5_QP_ XC50_100
# IC50 per entry

Compound	Observed value
Cc1cc(F)ccc1CN1CCN(c2cc(C)c(=O)[nH]n2)CC1	5 to 10 µM

Report IC50, nothing else, for this compound: `Cc1cc(F)ccc1CN1CCN(c2n[nH]c(=O)cc2C)CC1`
10 to 500 µM

Answer with reported IC50 of `O=C1CN(c2cn[nH]c(=O)c2Cl)CCN1Cc1ccc(C(F)(F)F)cc1`
1e-05 to 1 µM

Identify IC50 associated with the compound `O=c1[nH]ncc(N2CCN(Cc3cccc4ccccc34)CC2)c1Cl`
1 to 5 µM

// fetch IC50 given entry `O=C1CN(c2cn[nH]c(=O)c2Cl)CCN1Cc1ccccc1-c1ccccc1`
1 to 5 µM

Give the value of IC50 reported for the following: Cc1ncccc1CN1CCN(c2cn[nH]c(=O)c2Cl)CC1 [drawing 719]
1e-05 to 1 µM

Identify IC50 associated with the compound `Cc1ccccc1CN1CCN(c2cn[nH]c(=O)c2CC(C)C)CC1=O`
10 to 500 µM

Kindly indicate its recorded IC50. Item: `O=C1CN(c2cn[nH]c(=O)c2Cl)CCN1Cc1cccc(Oc2ccccc2)c1`
1 to 5 µM

State, in one line, measured IC50 of `Cn1ncc2c(CN3CCN(c4cn[nH]c(=O)c4Cl)CC3)cccc21`
10 to 500 µM

Return value of IC50 for input `O=C1CN(c2c(Cl)c(Br)n[nH]c2=O)CCN1Cc1ccccc1C(F)(F)F` , no commentary.
5 to 10 µM

Identify measured IC50 corresponding to `CCN(CC)C(=O)CN1CCN(c2cn[nH]c(=O)c2Cl)CC1=O`
10 to 500 µM

Value source: patent US20260184708A1
